# Study System: ADAAD (Active DNA-dependent ATPase A domain) (Bos taurus, UniProt Q9TTA5, R815H)
# Construct: ATPase domain fragment of bovine SMARCAL1 (RecA-like domains 1 and 2), plasmid pCP101 (pET-14b, NdeI/XhoI), E. coli BL21(DE3), Ni-NTA then DEAE-sepharose; tag removal not mentioned
# Sequence (Q9TTA5 221-940 R815H limits assumed): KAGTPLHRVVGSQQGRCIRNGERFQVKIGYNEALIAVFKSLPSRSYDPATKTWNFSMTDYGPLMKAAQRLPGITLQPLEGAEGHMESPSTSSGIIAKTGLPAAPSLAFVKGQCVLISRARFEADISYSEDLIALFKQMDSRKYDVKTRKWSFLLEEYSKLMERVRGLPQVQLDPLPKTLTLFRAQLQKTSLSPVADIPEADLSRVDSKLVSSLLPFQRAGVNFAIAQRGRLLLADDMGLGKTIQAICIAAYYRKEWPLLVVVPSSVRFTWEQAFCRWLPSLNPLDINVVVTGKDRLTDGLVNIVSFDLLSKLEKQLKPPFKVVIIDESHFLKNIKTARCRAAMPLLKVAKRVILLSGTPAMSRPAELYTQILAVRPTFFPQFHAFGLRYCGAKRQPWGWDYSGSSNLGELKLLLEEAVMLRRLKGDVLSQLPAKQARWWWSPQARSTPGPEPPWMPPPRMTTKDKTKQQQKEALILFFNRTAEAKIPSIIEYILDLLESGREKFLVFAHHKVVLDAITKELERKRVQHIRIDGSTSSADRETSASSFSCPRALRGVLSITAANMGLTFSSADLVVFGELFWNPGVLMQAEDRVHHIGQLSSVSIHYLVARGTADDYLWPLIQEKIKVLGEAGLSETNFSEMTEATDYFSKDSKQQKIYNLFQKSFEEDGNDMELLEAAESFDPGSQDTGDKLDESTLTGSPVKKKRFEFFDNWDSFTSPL
# Assay Name: intrinsic tryptophan fluorescence titration (ex […] nm, em […] nm), one-site fit
Measure: pKd
The scale used: pKd is minus the common logarithm of the concentration in molar units.

Task item: Look up pKd: Nc1ncnc2c1ncn2[C@@H]1O[C@H](COP(=O)(O)OP(=O)(O)OP(=O)(O)O)[C@@H](O)[C@H]1O [ATP]
Reply: 5.89
